# SYSTEM UNDER TEST: T1, human RANK-L (human, UniProt O14788 140-317, limits assumed)
# T1 construct: Soluble protein, used coated, biotinylated or labelled in ELISA, AlphaScreen, FMAT and Biacore; also called hRANK-L; soluble human RANK-L
# T1 sequence (looked up): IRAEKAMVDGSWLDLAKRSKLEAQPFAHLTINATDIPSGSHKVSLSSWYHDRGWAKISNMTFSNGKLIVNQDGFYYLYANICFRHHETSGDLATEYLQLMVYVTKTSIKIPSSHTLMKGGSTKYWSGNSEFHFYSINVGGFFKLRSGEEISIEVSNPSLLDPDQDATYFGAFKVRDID
# MEASUREMENT NOTES: SPR Biacore 3000, hRANK-L on CM5, 100 nM Nanobody
RESULT TYPE: koff (s⁻¹)

[I] RANKL13hum2 (VHH, name in Kabat numbering) VHH: EVQLVESGGGLVQPGGSLRLSCAASGRTFSSYPMGWFRQAPGKGREFVASITGSGGSTYYADSVKGRFTISRDNAKNTLYLQMNSLRPEDTAVYSCAAYIRPDTYLSRDYRKYDYWGQGTLVTVSS
[II] RANKL18hum5 (VHH) VHH: EVQLVESGGGLVQPGGSLRLSCAASGRTFSRSAMGWFRQAPGKGREFVGFITGSGGTTYYGESVKGRFTISRDNAQNPVYLQMNSLRPEDTAVYYCAVYRRTYISSTYSESSEYDYWGQGTLVTVSS
[III] RANKL13hum1 (VHH) VHH: EVQLVESGGGLVQPGGSLRLSCAASGFTFRSYPMGWFRQAPGKGREFVASITGSGGSTYYADSVKGRFTISRDNAKNTLYLQMNSLRPEDTAVYSCAAYIRPDTYLSRDYRKYDYWGQGTLVTVSS
Query: Given 3 binders, produce a descending ranking by koff. List each label, following the requested order.
Result: I, III, II
(I: 0.000232 s⁻¹, III: 0.000145 s⁻¹, II: 9.94e-05 s⁻¹)
